Collected kinact/KI values appear next to each entry.
assay.system: CDK7/cyclinH/MAT1 trimeric complex (Homo sapiens (Human), UniProt P50613)
Sequence (P50613 whole entry): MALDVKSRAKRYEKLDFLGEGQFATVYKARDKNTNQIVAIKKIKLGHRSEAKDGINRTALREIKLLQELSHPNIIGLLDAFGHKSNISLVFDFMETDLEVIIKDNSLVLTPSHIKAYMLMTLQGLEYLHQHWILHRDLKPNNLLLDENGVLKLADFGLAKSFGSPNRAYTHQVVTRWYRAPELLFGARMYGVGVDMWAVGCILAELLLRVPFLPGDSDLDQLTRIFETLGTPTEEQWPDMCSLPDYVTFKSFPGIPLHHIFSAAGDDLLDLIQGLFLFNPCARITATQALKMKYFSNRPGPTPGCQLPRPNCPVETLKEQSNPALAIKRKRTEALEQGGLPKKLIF
Sequence (P51946 whole entry partner): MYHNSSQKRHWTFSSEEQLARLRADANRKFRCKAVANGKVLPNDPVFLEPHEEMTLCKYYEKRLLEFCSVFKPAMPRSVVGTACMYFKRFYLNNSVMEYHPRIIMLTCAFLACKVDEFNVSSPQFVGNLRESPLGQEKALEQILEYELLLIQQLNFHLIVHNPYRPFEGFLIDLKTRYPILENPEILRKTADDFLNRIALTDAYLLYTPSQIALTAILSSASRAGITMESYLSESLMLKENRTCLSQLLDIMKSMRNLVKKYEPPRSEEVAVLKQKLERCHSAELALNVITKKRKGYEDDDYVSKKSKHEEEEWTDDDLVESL
Sequence (P51948 whole entry partner): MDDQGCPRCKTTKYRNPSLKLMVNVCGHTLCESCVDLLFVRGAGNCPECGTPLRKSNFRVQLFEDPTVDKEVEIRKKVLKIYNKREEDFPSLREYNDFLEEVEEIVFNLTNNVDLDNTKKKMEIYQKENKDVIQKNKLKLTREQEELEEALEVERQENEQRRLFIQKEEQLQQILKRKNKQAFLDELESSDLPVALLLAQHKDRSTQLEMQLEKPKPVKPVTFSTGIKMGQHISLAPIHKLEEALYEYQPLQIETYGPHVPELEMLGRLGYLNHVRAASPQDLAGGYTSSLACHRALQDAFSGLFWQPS
assay.name: In vitro CDK7 assay, potency of irreversible covalent inhibitors (kinact/KI)
measurement.parameters: read-out: CDK7 (20 nM enz.) (kobs/[I], M^−1*s^−1), 20 nM enz.
measurement.kind: kinact/KI (M⁻¹ s⁻¹)

1) CC#CC(=O)N1CC(N2CCC(c3cc(C)c4c(c3)Nc3ncnc(N5CCS(=O)(=O)CC5)c3[C@@H](C)O4)CC2)C1 [compound 148] ... 952
2) C=CC(=O)N1CC(N2CCC(c3cc(C)c4c(c3)Nc3ncnc(N5CCS(=N)(=O)CC5)c3CO4)CC2)C1 [compound 72] ... 1090
3) C=CC(=O)N1CC[C@H](N2CC(c3cc(C)c4c(c3)Nc3ncnc(N5CCS(=O)(=O)CC5)c3[C@@H](C)O4)C2)C1 (single isomer, unassigned) [compound 117] ... 800
